tgt: human TRPC5 (Homo sapiens, UniProt Q9UL62)
Construct: expressed in transfected cells; host or cells: HEK 293
Sequence (Q9UL62 whole entry): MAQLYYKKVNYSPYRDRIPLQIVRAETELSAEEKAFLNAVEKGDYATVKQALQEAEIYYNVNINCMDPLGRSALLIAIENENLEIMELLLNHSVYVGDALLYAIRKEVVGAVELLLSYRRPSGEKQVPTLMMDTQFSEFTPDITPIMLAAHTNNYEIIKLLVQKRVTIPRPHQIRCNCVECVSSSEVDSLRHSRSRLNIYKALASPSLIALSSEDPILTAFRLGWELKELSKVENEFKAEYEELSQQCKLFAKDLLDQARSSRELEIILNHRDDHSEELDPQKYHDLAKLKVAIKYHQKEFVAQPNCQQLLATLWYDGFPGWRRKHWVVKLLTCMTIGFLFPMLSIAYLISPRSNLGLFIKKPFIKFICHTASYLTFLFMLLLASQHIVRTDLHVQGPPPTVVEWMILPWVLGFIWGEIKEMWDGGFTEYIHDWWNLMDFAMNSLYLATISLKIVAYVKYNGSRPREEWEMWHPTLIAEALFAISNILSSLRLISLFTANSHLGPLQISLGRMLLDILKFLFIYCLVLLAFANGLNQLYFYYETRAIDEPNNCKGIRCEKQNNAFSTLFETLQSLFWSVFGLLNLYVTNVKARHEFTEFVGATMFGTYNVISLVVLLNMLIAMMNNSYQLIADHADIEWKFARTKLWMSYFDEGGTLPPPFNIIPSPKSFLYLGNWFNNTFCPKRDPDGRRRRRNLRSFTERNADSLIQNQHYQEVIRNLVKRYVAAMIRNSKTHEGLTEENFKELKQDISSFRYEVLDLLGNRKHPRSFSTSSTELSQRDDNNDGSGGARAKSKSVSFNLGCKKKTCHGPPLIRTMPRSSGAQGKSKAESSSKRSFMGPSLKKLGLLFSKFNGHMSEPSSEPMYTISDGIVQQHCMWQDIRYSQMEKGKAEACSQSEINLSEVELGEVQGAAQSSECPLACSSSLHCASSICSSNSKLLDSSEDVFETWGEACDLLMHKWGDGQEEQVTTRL
methodDescription: TRPC5 fluorescence-based assay (Ca2+ flux assay in FLIPR format), cells overexpressing TRPC5
Assay type: cell-based
runParameters: 5 μM of test compound, following Carbachol stimulation
Consider the following compounds; for each one, report its inhibition at 5 µM.
Respond with the bare value in %.

Value of inhibition at 5 µM reported for the compound CCSc1nc2ccccc2n1Cc1cccc([N+](=O)[O-])c1 is 32.2

Noted for CCn1c(NC2CCCCC2)nc2ccccc21 : its inhibition at 5 µM reads 55.5

Nc1nc2ccccc2n1Cc1ccc(Cl)c(Cl)c1 has a reported inhibition at 5 µM of 52.4

// inhibition at 5 µM value for CCn1c(NCc2ccc(Br)cc2)nc2ccccc21 : 71.6

The reported value for CCOc1ccccc1Nc1nc2ccccc2n1C(C)C in terms of inhibition at 5 µM is 45.1
